In this section we review reported self-cleavage values for a set of variants.
B1: Twister Ribozyme (parent)
chain: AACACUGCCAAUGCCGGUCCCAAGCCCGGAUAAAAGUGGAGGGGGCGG

Variants of: B1
EXPERIMENTAL PROTOCOL: self-cleavage, relative activity (ratio to wild type); higher = more cleavage; co-transcriptional
Give the value as a plain number.

A selection of reference data follows.
1. G16A G47U
0.487
2. A11U C19G
0.616
3. G17U G29C
0.0894
4. C25G G48C
0.167
5. A23C G44A
0.478
6. C25U A34U
0.633
7. U6G G44U
0.242
8. A22C G47A
0.909
9. C14U C21U
0.141
10. G13A A33U
1.01

Task: For the variant shown here, A10G C20G , give the reported self-cleavage.
Result: 0.183

Task: Name the recorded self-cleavage for C21U A22G .
Result: 0.0633

Task: I am curious: what self-cleavage value has been reported for A32U G47A ?
Result: 0.883

Task: Looking for the measured self-cleavage of A11G U12A , can you help?
Result: 0.942

Task: Bench note: what self-cleavage did C14G G36C show?
Result: 0.065

Task: Could you tell me which self-cleavage is on file for C25A G29A ?
Result: 0.308

Task: Dear colleague, I am looking for the recorded self-cleavage of the following variant: A1C A32U
Result: 0.228

Task: # get_value(readout='self-cleavage', item= A23G G48U )
Result: 0.354

Task: Could you share which self-cleavage value was measured for C8A C26U ?
Result: 0.098

src = the RNAGym collection of RNA variant scans (doi:10.7554/elife.80360)
